Below is a list of entries, each paired with its recorded pEC50 value.
# Test Target: T1, human C-MET on stably transfected CHO-K1 cells (human, UniProt P08581 25-1390)
# T1 construct: also called hucMET; human C-MET+ CHO-K1 cells
# T1 sequence (P08581 25-1390 limits assumed): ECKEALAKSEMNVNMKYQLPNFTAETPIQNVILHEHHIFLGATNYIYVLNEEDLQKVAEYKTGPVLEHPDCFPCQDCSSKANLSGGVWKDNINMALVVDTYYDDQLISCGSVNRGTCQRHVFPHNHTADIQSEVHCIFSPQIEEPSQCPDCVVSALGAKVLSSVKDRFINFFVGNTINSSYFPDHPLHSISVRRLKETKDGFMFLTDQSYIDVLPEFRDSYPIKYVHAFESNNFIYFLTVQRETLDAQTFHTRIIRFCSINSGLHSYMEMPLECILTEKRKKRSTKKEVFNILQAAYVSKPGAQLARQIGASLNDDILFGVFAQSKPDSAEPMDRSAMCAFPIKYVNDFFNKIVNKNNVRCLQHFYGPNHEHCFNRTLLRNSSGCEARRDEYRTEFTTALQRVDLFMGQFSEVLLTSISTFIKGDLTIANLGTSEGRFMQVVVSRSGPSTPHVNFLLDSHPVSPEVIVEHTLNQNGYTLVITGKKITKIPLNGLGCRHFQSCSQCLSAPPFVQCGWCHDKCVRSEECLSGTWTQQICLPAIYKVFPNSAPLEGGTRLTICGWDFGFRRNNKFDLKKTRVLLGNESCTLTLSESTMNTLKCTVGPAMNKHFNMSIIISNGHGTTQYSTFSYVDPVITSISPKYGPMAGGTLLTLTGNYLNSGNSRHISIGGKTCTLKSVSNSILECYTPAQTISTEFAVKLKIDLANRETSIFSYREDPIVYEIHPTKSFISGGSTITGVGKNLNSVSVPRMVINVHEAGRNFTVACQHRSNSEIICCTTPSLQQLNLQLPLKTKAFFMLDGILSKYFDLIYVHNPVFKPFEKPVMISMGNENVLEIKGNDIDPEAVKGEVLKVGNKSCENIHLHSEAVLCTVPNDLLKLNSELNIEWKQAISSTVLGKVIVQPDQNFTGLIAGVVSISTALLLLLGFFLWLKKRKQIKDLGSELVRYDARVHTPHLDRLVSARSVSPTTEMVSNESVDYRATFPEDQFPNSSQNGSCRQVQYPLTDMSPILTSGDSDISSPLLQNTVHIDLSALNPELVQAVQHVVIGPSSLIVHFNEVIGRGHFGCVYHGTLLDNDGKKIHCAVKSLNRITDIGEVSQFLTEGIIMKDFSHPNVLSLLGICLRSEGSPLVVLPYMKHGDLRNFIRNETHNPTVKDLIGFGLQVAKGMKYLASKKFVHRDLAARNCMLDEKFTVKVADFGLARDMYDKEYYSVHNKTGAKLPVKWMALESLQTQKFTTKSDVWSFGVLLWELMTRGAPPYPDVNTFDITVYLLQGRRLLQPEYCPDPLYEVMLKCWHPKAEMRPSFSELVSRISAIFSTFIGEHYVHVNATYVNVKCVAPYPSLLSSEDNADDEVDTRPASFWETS
# Assay Comment: flow cytometry, C-MET CHO-K1 cells
// returns pEC50 (minus log10 of molar concentration), number only

Below, 2 binders whose answers are already recorded.
INSERT INTO results (binder, result) VALUES
  ('MH4 (antibody, IgG4, V domains shown) VH: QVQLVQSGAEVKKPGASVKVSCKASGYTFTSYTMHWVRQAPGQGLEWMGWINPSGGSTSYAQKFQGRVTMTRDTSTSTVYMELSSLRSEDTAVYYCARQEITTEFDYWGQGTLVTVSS VL: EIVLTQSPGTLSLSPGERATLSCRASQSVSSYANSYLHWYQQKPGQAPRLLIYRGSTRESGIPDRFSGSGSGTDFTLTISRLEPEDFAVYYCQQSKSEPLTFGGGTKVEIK', 8.76),
  ('08G07 (antibody, human IgG4, V domains shown) VH: QVQLVQSGAEVKKPGASVKVSCKASGYTFTSYTMHWVRQAPGQGLEWMGWINPSGGLANYAQKFQGRVTMTRDTSTSTVYMELSSLRSEDTAVYYCARSEITTDFDYWGQGTLVTVSS VL: EIVLTQSPGTLSLSPGERATLSCRASQSVDSYANSYLHWYQQKPGQAPRLLIYRGSTRESGIPDRFSGSGSGTDFTLTISRLEPEDFAVYYCQQSKSEPLTFGGGTKVEIK', 8.38);

Reported pEC50, binder MH5 (antibody, IgG4, V domains shown) VH: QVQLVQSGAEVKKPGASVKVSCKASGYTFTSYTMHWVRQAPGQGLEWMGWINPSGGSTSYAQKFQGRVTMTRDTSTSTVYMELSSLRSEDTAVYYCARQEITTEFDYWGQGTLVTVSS VL: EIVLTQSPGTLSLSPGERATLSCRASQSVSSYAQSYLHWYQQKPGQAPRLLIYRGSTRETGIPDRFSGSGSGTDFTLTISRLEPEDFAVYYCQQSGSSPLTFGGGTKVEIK : ____
8.75
